Biological target: human NHE-3 protein (expressed in the LAP1 cell line) (Homo sapiens)
Construct: expressed in transfected cells; host or cells: LAP1 cell line
Sequence (P48764 26-834): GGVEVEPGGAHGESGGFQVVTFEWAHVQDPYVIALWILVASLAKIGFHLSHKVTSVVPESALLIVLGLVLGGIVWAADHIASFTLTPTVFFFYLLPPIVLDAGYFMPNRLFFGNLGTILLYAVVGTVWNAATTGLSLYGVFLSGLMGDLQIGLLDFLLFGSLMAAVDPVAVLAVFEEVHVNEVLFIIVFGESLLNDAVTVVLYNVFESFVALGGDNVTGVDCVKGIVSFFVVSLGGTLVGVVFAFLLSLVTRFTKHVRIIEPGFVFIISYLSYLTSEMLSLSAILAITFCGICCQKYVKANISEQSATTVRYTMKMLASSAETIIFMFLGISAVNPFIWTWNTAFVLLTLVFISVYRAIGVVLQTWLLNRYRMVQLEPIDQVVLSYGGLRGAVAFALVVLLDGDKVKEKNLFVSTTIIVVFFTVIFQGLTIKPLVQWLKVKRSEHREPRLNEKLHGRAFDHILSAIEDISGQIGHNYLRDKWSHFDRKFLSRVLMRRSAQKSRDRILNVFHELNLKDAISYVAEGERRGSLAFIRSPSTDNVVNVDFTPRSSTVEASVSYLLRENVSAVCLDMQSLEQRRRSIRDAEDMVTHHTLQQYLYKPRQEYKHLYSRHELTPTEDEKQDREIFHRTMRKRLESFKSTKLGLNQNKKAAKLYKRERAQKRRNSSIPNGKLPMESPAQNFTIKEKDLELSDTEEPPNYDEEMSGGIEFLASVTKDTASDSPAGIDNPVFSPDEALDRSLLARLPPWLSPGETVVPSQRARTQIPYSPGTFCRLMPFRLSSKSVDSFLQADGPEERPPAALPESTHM
Test: Inhibition of sodium/proton exchanger subtype 3: recovery of intracellular pH after acidification (BCECF fluorescence)
Assay type: cell-based
Conditions: pHi recovery as percentage of the maximum recovery, read-out: remaining activity of hNHE3
The label yes (1) is reserved for remaining activity at 30 µM strictly under 30%; no (0) covers values equal to or above it.

Query: Consider the compound COC(=O)CC[C@@H](C)[C@H]1CCC2C3C(C[C@H](O)[C@@]21C)[C@@]1(C)CC[C@H](OCCNC(=O)c2c(C)nc4ccccc4c2NCc2ccccc2)CC1C[C@H]3O (stereo partly drawn) . Is its remaining activity at 30 µM strictly less than 30%?
Result: yes (1)

Query: Quick check: does CC(=O)c1c(C)nc2ccccc2c1NCc1ccc(C#CC2(O)CCC3(C)C(CC(O)C4C3CC(O)C3(C)C4CC[C@@H]3C(C)CCC(=O)O)C2)cc1 (stereo partly drawn) have remaining activity at 30 µM under 30%?
Result: yes (1)

Query: Decide: remaining activity at 30 µM of CC(=O)c1c(C)nc2ccccc2c1NCc1ccc(C#CC2(O)CCC3(C)C(CC(O)C4C3CC(O)C3(C)C4CC[C@@H]3C(C)CCC(=O)O)C2)c(Cl)c1 (stereo partly drawn) strictly below 30%?
Result: yes (1)

Query: Below 30% on remaining activity at 30 µM? Entry COC(=O)c1c(C)nc2ccccc2c1NCc1ccc(C#CC2(O)CCC3(C)C(CC(O)C4C3CC(O)C3(C)C4CC[C@@H]3C(C)CCC(=O)O)C2)cc1 (stereo partly drawn)
Result: no (0)

Query: Please check: remaining activity at 30 µM for CC(=O)c1c(C)nc2ccccc2c1NCc1ccc(CCC2(O)CCC3(C)C(CC(O)C4C3CC(O)C3(C)C4CC[C@@H]3C(C)CCC(=O)O)C2)cc1F (stereo partly drawn) , strictly under 30% or not?
Result: no (0)

Query: Please indicate whether the reported remaining activity at 30 µM of CC(=O)c1c(C)nc2ccccc2c1NCc1ccc(CCC2(O)CCC3(C)C(CC(O)C4C3CC(O)C3(C)C4CC[C@@H]3C(C)CCC(=O)O)C2)cc1Cl (stereo partly drawn) is strictly below 30%.
Result: no (0)

Query: Quick check: remaining activity at 30 µM of CC(=O)c1c(C)nc2ccccc2c1NCc1ccc(C#CC2(O)CCC3(C)C(CC(O)C4C3CC(O)C3(C)C4CC[C@@H]3C(C)CCC(=O)O)C2)cc1Cl (stereo partly drawn) under 30%?
Result: no (0)

Query: Just wondering, is remaining activity at 30 µM of CC(=O)c1c(C)nc2ccccc2c1NCc1ccc(C#CC2(O)CCC3(C)C(CC(O)C4C3CC(O)C3(C)C4CC[C@@H]3C(C)CCC(=O)O)C2)c(F)c1 (stereo partly drawn) below 30%?
Result: yes (1)

Query: Given the entry CC(=O)c1c(C)nc2ccccc2c1NCc1ccc(C(=O)NCCO[C@H]2CC[C@@]3(C)C(C2)C[C@@H](O)C2C3C[C@H](O)[C@@]3(C)C2CC[C@@H]3[C@H](C)CCC(=O)O)cc1 (stereo partly drawn) , would its reported remaining activity at 30 µM be below 30%?
Result: no (0)
